- Test system: BT-549 breast
- assaySummary: NCI tumour cell line growth inhibition, 48 h
quantityName: GI50

>  <compound>
O=C1CCCCCCCC/C=C/CCC(c2ccco2)O1 (stereo unspecified)

>  <GI50>
37.1 µM

$$$$
>  <compound>
CN(NC(=O)CC(=O)NN(C)C(=S)c1ccccc1)C(=S)c1ccccc1

>  <GI50>
88.7 µM

$$$$
>  <compound>
CC1(C)OC[C@@H]([C@@]2(CO[Si](C)(C)C(C)(C)C)CC=CC(=O)O2)O1

>  <GI50>
24.1 µM

$$$$
>  <compound>
O=C(NC1CC1)c1ccc(-c2nc3ccc4[nH]ncc4c3c3c2CCCC3)cc1

>  <GI50>
1.51 µM

$$$$

# input Give the reported GI50 for `COc1ccc(/C=C2\CN(C(=O)C(Cl)Cl)C/C(=C\c3ccc(OC)c(OC)c3)C2=O)cc1OC` (system: BT-549 breast).
# output 0.535 µM

# input Okay, and `CCCCCCCCCNCCCCCCCCC` ?
# output 1.93 µM
